assay: SAD study plasma PK, single oral dose, healthy young subjects; type: in vivo, human; conditions: human, plasma, po, 10 mg, AUCinf, Mean (SD), single oral dose 10 mg, n=3
QUANTITY KIND: AUC(0-inf)

>>> df
                                   compound  quantity_kind       result
0  Cn1c(-c2ccc(C(N)=O)cc2F)nnc1C(C)(C)Oc1c(F)cc(Cl)cc1F [ASP3662]     AUC(0-inf)  858 ng·h/mL

---

experiment: SAD study plasma PK, single oral dose, healthy young subjects; type: in vivo, human; conditions: human, plasma, po, 30 mg, Tmax, Min–max, single oral dose 30 mg, n=6
QUANTITY KIND: Tmax

                                   molecule      result
0  Cn1c(-c2ccc(C(N)=O)cc2F)nnc1C(C)(C)Oc1c(F)cc(Cl)cc1F [ASP3662]  1.5 to 4 h

---

assay: SAD study plasma PK, single oral dose, healthy young subjects; format: in vivo, human; details: human, plasma, po, 6 mg, Cmax, Median, single oral dose 6 mg, n=6
QUANTITY KIND: Cmax (ng/mL)

>>> print(df.to_string())
                                   molecule  readout_number
0  Cn1c(-c2ccc(C(N)=O)cc2F)nnc1C(C)(C)Oc1c(F)cc(Cl)cc1F [ASP3662]            30.5

---

assay: SAD study plasma PK, single oral dose, healthy young subjects; type: in vivo, human; details: human, plasma, po, 6 mg, Tmax, Median, single oral dose 6 mg, n=6
QUANTITY KIND: Tmax (h)

>>> df
                               given_smiles  quantity_kind  readout_number
0  Cn1c(-c2ccc(C(N)=O)cc2F)nnc1C(C)(C)Oc1c(F)cc(Cl)cc1F           Tmax            1.75

---

experiment: SAD study plasma PK, single oral dose, healthy young subjects; format: in vivo, human; settings: human, plasma, po, 30 mg, AUCinf, Min–max, single oral dose 30 mg, n=6
QUANTITY KIND: AUC(0-inf)

                                   molecule  quantity_kind                result
0  Cn1c(-c2ccc(C(N)=O)cc2F)nnc1C(C)(C)Oc1c(F)cc(Cl)cc1F [ASP3662]     AUC(0-inf)  1630 to 6770 ng·h/mL

---

experiment: SAD study plasma PK, single oral dose, healthy young subjects; format: in vivo, human; settings: human, plasma, po, 6 mg, t½, Median, single oral dose 6 mg, n=6
QUANTITY KIND: half-life

In [3]: df
Out[3]:
                               given_smiles  quantity_kind  result
0  Cn1c(-c2ccc(C(N)=O)cc2F)nnc1C(C)(C)Oc1c(F)cc(Cl)cc1F      half-life  37.9 h

---

assay: SAD study plasma PK, single oral dose, healthy young subjects; assay type: in vivo, human; details: human, plasma, po, 60 mg, t½, Min–max, single oral dose 60 mg, n=6
QUANTITY KIND: half-life

In [3]: df
Out[3]:
                                   compound  quantity_kind          result
0  Cn1c(-c2ccc(C(N)=O)cc2F)nnc1C(C)(C)Oc1c(F)cc(Cl)cc1F [ASP3662]      half-life  13.1 to 17.3 h
